Origin of the recorded values: patent US20250163104A1

tested target: human PD-1 / PD-L1-Ig binding on Jurkat cell line over-expressing human PD-1 (Jurkat-PD-1) (Homo sapiens)
Construct: expressed in transfected cells; host or cells: Jurkat
Sequence (Q15116 25-288): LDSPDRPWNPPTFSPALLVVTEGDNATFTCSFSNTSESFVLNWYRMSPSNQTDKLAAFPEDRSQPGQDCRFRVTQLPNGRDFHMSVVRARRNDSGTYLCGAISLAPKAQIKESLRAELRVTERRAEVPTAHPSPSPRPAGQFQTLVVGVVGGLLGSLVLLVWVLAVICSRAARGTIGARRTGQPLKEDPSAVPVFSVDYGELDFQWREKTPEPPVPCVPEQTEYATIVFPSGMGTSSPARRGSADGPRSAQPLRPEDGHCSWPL
assay summary: Jurkat-PD-1 Cell Binding High-Content Screening Assay (CBA)
Format: cell-based
applied conditions: Jurkat-PD-1 cells, PE-labeled PD-L1-Ig 20 nM final; read-out: Jurkat HPD1_PDL1 IC50
Where a SMILES comes first, the peptide text is derived from it. Bridges are numbered along the chain shown (N, C = ends). [ ]: non-standard residue; d: D form. Bip = N[C@@H](Cc1ccc(-c2ccccc2)cc1)C(=O)O; Orn = NCCC[C@H](N)C(=O)O
readout name: IC50 (nM)
Write the answer as a number in nM, unit excluded.

Query :: GET /values?readout=IC50&item= CC(C)C[C@H]1NC(=O)[C@H](CCCN)NC(=O)[C@H](CCC(=O)O)NC(=O)[C@H](Cc2ccc(-c3ccccc3)cc2)NC(=O)[C@H](C(C)C)NC(=O)[C@H](Cc2c[nH]c3ccccc23)NC(=O)[C@H](CC(=O)O)NC(=O)[C@H](Cc2ccc(C#N)cc2)NC(=O)[C@H](CN)NC(=O)CSC[C@@H](C(=O)N[C@@H](C)C(N)=O)NC(=O)[C@H]([C@@H](C)O)NC(=O)[C@H](C(C)C)NC(=O)[C@H](CC2CCCCC2)NC(=O)[C@H](CCN)NC1=O [Compound 2187]
Result :: 13.2

Query :: GET /values?readout=IC50&item= CCCC[C@@H]1NC(=O)[C@H](CCN)NC(=O)[C@@H](CC(C)C)NC(=O)[C@H](CCCN)NC(=O)[C@H]([C@@H](C)CC)NC(=O)[C@H](Cc2ccc(-c3ccccc3)cc2)NC(=O)[C@H](C(C)C)NC(=O)[C@H](Cc2cccc(C)c2)NC(=O)[C@H](CC(=O)O)NC(=O)[C@H](Cc2ccc(OCC(=O)O)cc2)NC(=O)[C@H](Cc2ccncc2)NC(=O)CSC[C@@H](C(=O)N[C@@H](C)C(N)=O)NC(=O)[C@H]([C@@H](C)O)NC(=O)[C@H](C(C)C)NC1=O [Compound 1197]
Result :: 12

Query :: GET /values?readout=IC50&item= CC(C)C[C@H]1NC(=O)[C@H](CCCN)NC(=O)[C@H](CCC(=O)O)NC(=O)[C@H](Cc2ccc(-c3ccccc3)cc2)NC(=O)[C@H](C(C)C)NC(=O)[C@H](CCc2ccccc2)NC(=O)[C@H](CC(=O)O)NC(=O)[C@H](Cc2ccc(OCC(=O)O)cc2)NC(=O)[C@H](CN)NC(=O)CSC[C@@H](C(=O)N[C@@H](C)C(N)=O)NC(=O)[C@H]([C@@H](C)O)NC(=O)[C@H](C(C)C)NC(=O)[C@H](CC2CCCCC2)NC(=O)[C@H](CCN)NC1=O [Compound 2155]
Result :: 49.3

Query :: GET /values?readout=IC50&item= CCC[C@@H]1NC(=O)[C@H](Cc2c[nH]c3ccccc23)NC(=O)[C@H](CC(=O)O)NC(=O)[C@H](Cc2ccc(OCC(=O)O)cc2)NC(=O)[C@H](CN)NC(=O)CSC[C@@H](C(=O)N[C@@H](C)C(N)=O)NC(=O)[C@H]([C@@H](C)O)NC(=O)[C@H](C(C)C)NC(=O)[C@H](CC2CCCCC2)NC(=O)[C@H](CCN)NC(=O)[C@@H](CC(C)C)NC(=O)[C@H](CCCN)NC(=O)[C@H](CCC(=O)O)NC(=O)[C@H](Cc2ccc(-c3ccccc3)cc2)NC1=O [Compound 1719]
Result :: 21

Query :: GET /values?readout=IC50&item= CC(C)C[C@@H]1NC(=O)[C@H](Cc2c[nH]c3ccccc23)NC(=O)[C@H](CC(=O)O)NC(=O)[C@H](Cc2ccc(O)cc2)NC(=O)[C@H](Cc2ccccc2)NC(=O)CSC[C@@H](C(=O)N[C@@H](C)C(N)=O)NC(=O)[C@H](CO)NC(=O)[C@H](C(C)C)NC(=O)[C@H](CC(C)C)NC(=O)[C@H](CC(N)=O)NC(=O)[C@@H](CC(C)C)NC(=O)[C@H](CCCN)NC(=O)[C@H](C(C)C)NC(=O)[C@H](Cc2ccc(-c3ccccc3)cc2)NC1=O [Compound 1065] ({CH2CO}-FYDWL[Bip]V[Orn][dL]NLVSCA-NH2; thioether N-14)
Result :: 12.8
